A collection of compounds and their measured half-life
test: Metabolic stability in mouse liver microsomes assessed as half life measured up to 60 mins by LC/MS analysis; format: ADME, Microsome
TEST READOUT: half-life (min)

- CC1=C(C)/C(=C/NC2CCCCCC2)N=C1c1ccc(C)[nH]1: 36.8
- CCC1=C(CC)/C(=C/N[C@H]2CC[C@H](C(F)(F)F)CC2)N=C1c1ccc[nH]1: 53.6
- CCc1ccc(C2=N/C(=C\NC3CCCCCC3)C(OC)=C2OC)[nH]1: 36.6
- CCC1=C(C)/C(=C/NC2CCCCC2)N=C1c1ccc(C)[nH]1: 31.7
- COC1=C(OC)/C(=C/NC2CCCCCC2)N=C1c1ccc[nH]1: 14.6

====

// pIC50 lookup, one value per entry
system: HepG2; test: Cytotoxicity against human HepG2 cells assessed as cell viability measured after 48 hrs by MTT assay; type: toxicity, cell-based; conditions: hepg2
pIC50: −log10 of the molar value.
TEST READOUT: pIC50

* CCc1ccc(C2=N/C(=C\NC3CCCCC3)C3=C2OCCO3)[nH]1 | 5.71
* CCC1=C(CC)/C(=C/NC23C[C@H]4C[C@@H](C2)C[C@@H](C3)C4)N=C1c1ccc(CC)[nH]1 | 5.82
* CCC1=C(CC)/C(=C/NC23C[C@H]4C[C@@H](C2)C[C@@H](C3)C4)N=C1c1ccc(-c2ccccc2)[nH]1 | 5.69
* CCC1=C(CC)/C(=C/NC2CCCCCCC2)N=C1c1ccc(Cc2ccc(OC)cc2)[nH]1 | 5.37
* CCC1=C(C)/C(=C/NC23C[C@H]4C[C@@H](C2)C[C@@H](C3)C4)N=C1c1ccc(CC)[nH]1 | 5.53

====

test system: Plasmodium yoelii; assay: Antimalarial activity against erythrocytic Plasmodium yoelii MRA-428 infected in CF1 mouse assessed as reduction in parasitemia at 10 mg/kg, po once daily for 4 days measured on day 5; type: functional; design: scale not given: the % may be the effect or the level left; conditions: time 4 day
TEST READOUT: Activity (%)

* COc1ccc(Cc2ccc(C3=N/C(=C\NC4CCCCC4)C4=C3CCCC4)[nH]2)cc1 | 0
* COc1ccc(Cc2ccc(C3=N/C(=C\NC4CCCCCC4)C4=C3OCCO4)[nH]2)cc1 | 1.5
* CCC1=C(CC)/C(=C/NC23C[C@H]4C[C@@H](C2)C[C@@H](C3)C4)N=C1c1ccc(C)[nH]1 | 100
* [2H]C([2H])(C)c1ccc(C2=N/C(=C\NC3CCCCCC3)C(C)=C2C)[nH]1 | 78.5
* CCC1=C(CC)/C(=C/NC2CCCCCCC2)N=C1c1ccc(CC)[nH]1 | 63.1
* CCC1=C(CC)/C(=C/NC23C[C@H]4C[C@@H](C2)C[C@@H](C3)C4)N=C1c1ccc(-c2ccc(OC)cc2)[nH]1 | 11.5
* CC1=C(C)/C(=C/NC2CCCCC2)N=C1c1ccc(C)[nH]1 | 0
* C(/NC1CCCCCC1)=C1/N=C(c2ccc[nH]2)C2=C1OCCO2 | 0

====

experiment: Metabolic stability in human liver microsomes assessed as half life measured up to 60 mins by LC/MS analysis; type: ADME, Microsome
Reported half-life values are given for each entry in this list.
TEST READOUT: half-life

* FC(F)(F)[C@H]1CC[C@H](N/C=C2\N=C(c3ccc[nH]3)C3=C2CCCC3)CC1 | 0.565 h
* COC1=C(OC)/C(=C/NC2CCCCC2)N=C1c1ccc[nH]1 | 0.243 h
* CCC1=C(CC)/C(=C/NC2CCCCCC2)N=C1c1ccc(CC)[nH]1 | > 1 h
* CCC1=C(CC)/C(=C/NC23C[C@H]4C[C@@H](C2)C[C@@H](C3)C4)N=C1c1ccc(Br)[nH]1 | > 1 h
* CCc1ccc(C2=N/C(=C\NC3CCCCCC3)C3=C2OCCO3)[nH]1 | > 1 h
* CCC1=C(CC)/C(=C/NC2CCCCCCC2)N=C1c1ccc(Cc2ccc(OC)cc2)[nH]1 | > 1 h
* CCc1ccc(C2=N/C(=C\NC3CCCCCC3)C3=C2CCCC3)[nH]1 | > 1 h
* CCC1=C(C)/C(=C/NC23C[C@H]4C[C@@H](C2)C[C@@H](C3)C4)N=C1c1ccc(CC)[nH]1 | > 1 h
* COC1=C(OC)/C(=C/NC2CCCCCC2)N=C1c1ccc[nH]1 | 0.268 h
* CCC1=C(CC)/C(=C/NC23C[C@H]4C[C@@H](C2)C[C@@H](C3)C4)N=C1c1ccc(Cc2ccc(OC)cc2)[nH]1 | > 1 h

====

experiment: in vitro; conditions: mouse, liver microsomes
Response field label takes 1 (yes) when microsomal CLint at 1 h is strictly below 10 µL/min/mg and 0 (no) in all other cases.

- CCc1ccc(C2=N/C(=C\NC3CCCCCC3)C(C)=C2C)[nH]1: 1 (yes)
- COc1ccc(Cc2ccc(C3=N/C(=C\NC4CCCCC4)C4=C3OCCO4)[nH]2)cc1: 0 (no)
- CCC1=C(CC)/C(=C/NC2CCCCCCC2)N=C1c1ccc(-c2ccccc2)[nH]1: 0 (no)
- CCC1=C(CC)/C(=C/NC2CCCCCC2)N=C1c1ccc(-c2ccc(OC)cc2)[nH]1: 0 (no)
- CCC1=C(C)/C(=C/NC2CCCCCC2)N=C1c1ccc(C)[nH]1: 1 (yes)

====

system: MDR1 (human); experiment: Apparent permeability across apical to basolateral side in MDCK transfected with human MDR1 cells incubated for 1 hr by LC-MS analysis; settings: dog, MDCK-MDR1
Reported values of Papp A→B at 1 h for individual entries
TEST READOUT: Papp A→B at 1 h (×10⁻⁶ cm/s)

* CCC1=C(CC)/C(=C/NC23C[C@H]4C[C@@H](C2)C[C@@H](C3)C4)N=C1c1ccc(Cc2ccc(OC)cc2)[nH]1 | 0.04
* CCc1ccc(C2=N/C(=C\NC3CCCCCC3)C(OC)=C2OC)[nH]1 | 0.059
* CCC1=C(CC)/C(=C/NC23C[C@H]4C[C@@H](C2)C[C@@H](C3)C4)N=C1c1cc2cc(OC)ccc2[nH]1 | 0.002
* COC1=C(OC)/C(=C/NC23C[C@H]4C[C@@H](C2)C[C@@H](C3)C4)N=C1c1ccc[nH]1 | 0.27
* CCC1=C(CC)/C(=C/NC2CCCCCC2)N=C1c1ccc(Br)[nH]1 | 0.004
* CCC1=C(C)/C(=C/NC23C[C@H]4C[C@@H](C2)C[C@@H](C3)C4)N=C1c1ccc(CC)[nH]1 | 0.026
* CCC1=C(CC)/C(=C/NC2CCCCC2)N=C1c1ccc(Br)[nH]1 | 0.004
* COC(=O)[C@H]1CC[C@H](N/C=C2\N=C(c3ccc[nH]3)C3=C2CCCC3)CC1 | 0.23
* CCC1=C(CC)/C(=C/NC23C[C@H]4C[C@@H](C2)C[C@@H](C3)C4)N=C1c1ccc(-c2ccc(OC)cc2)[nH]1 | 0.03
* C(/NC1CCCCCC1)=C1/N=C(c2ccc[nH]2)C2=C1OCCO2 | 1.7
* COC1=C(OC)/C(=C/NC2CCCCCC2)N=C1c1ccc[nH]1 | 1.02
* C(/NC1CCCCC1)=C1/N=C(c2ccc[nH]2)C2=C1CCCC2 | 0.27
* CCC1=C(CC)/C(=C/NC2CCCCCC2)N=C1c1ccc(-c2ccc(OC)cc2)[nH]1 | 0.045
* COc1ccc(C2=C(c3ccc(OC)cc3)/C(=C/NC34C[C@H]5C[C@@H](C3)C[C@@H](C4)C5)N=C2c2ccc[nH]2)cc1 | 0.059
* COC1=C(OC)/C(=C/NC2CCCCC2)N=C1c1ccc[nH]1 | 4.3
* CCC1=C(CC)/C(=C/NC2CCCCCC2)N=C1c1ccc(C)[nH]1 | 0.007
* CCC1=C(C)/C(=C/NC2CCCCCC2)N=C1c1ccc(CC)[nH]1 | 0.036

====

Listed here: items and their measured IC50.
tested on: Plasmodium falciparum; assay: microbe, parasite or virus in culture; details: Dd2, 72 h
Description: Antiplasmodial activity against asexual blood-stage Plasmodium falciparum Dd2 using 2% haematocrit and 0.2% parasitemia assessed as reduction in fluorescence measured after 72 hrs by Malaria SYBR Green I-based Fluorescence (MSF) assay
TEST READOUT: IC50 (nM)

- CCC1=C(CC)/C(=C/NC23C[C@H]4C[C@@H](C2)C[C@@H](C3)C4)N=C1c1ccc(-c2ccc(OC)cc2)[nH]1: 5.37
- CCc1ccc(C2=N/C(=C\NC3CCCCC3)C3=C2CCCC3)[nH]1: 1.4
- CCC1=C(CC)/C(=C/NC2CCCCC2)N=C1c1ccc(Br)[nH]1: 336
- CCC1=C(CC)/C(=C/NC2CCCCCC2)N=C1c1ccc(-c2ccc(OC)cc2)[nH]1: 25.4
- COc1ccc(C2=C(c3ccc(OC)cc3)/C(=C/NC3CCCCCC3)N=C2c2ccc[nH]2)cc1: 330

====

test system: Plasmodium yoelii; assay: Antimalarial activity against erythrocytic Plasmodium yoelii MRA-428 infected in CF1 mouse assessed as reduction in parasitemia at 10 mg/kg, po once daily for 4 days measured on day 5; format: functional; set-up: scale not given: the % may be the effect or the level left; conditions: time 4 day
The label is Met for Activity below 70% and Not met for Activity equal to or exceeding 70%.

- CCC1=C(CC)/C(=C/NC2CCCCC2)N=C1c1ccc[nH]1: Not met
- CCC1=C(CC)/C(=C/NC2CCCCC2)N=C1c1ccc(C)[nH]1: Not met
- CCC1=C(C)/C(=C/NC2CCCCCC2)N=C1c1ccc(CC)[nH]1: Met
- CCC1=C(CC)/C(=C/NC23CC4CC(CC(C4)C2)C3)N=C1c1ccc[nH]1: Not met
- CC1=C(C)/C(=C/NC2CCCCCC2)N=C1c1ccc(C)[nH]1: Met
- CCc1ccc(C2=N/C(=C\NC3CCCCCC3)C(C)=C2C)[nH]1: Met
- CCC1=C(CC)/C(=C/NC2CCCCCCC2)N=C1c1ccc(Cc2ccc(OC)cc2)[nH]1: Met
- CCc1ccc(C2=N/C(=C\NC3CCCCC3)C(OC)=C2OC)[nH]1: Met
- CCC1=C(CC)/C(=C/NC2CCCCCC2)N=C1c1ccc(-c2ccccc2)[nH]1: Met
- CCC1=C(C)/C(=C/NC2CCCCCCC2)N=C1c1ccc(C)[nH]1: Not met
